// provenance: patent US20060078874A1

# targetOrSystem: LXRα (Homo sapiens, UniProt Q13133)
# Sequence (Q13133 whole entry): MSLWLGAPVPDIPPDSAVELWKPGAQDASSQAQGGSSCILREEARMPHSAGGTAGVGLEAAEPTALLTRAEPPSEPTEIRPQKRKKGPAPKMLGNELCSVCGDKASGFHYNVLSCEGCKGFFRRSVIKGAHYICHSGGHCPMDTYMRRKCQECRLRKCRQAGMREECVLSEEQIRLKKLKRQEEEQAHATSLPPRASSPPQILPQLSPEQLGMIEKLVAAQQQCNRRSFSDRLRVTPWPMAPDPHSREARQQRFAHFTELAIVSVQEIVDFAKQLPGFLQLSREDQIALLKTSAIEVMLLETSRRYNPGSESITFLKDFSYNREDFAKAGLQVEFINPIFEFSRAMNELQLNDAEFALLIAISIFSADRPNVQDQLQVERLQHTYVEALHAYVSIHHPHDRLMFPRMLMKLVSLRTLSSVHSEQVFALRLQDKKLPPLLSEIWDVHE
# measurementNotes: Recruitment of co-factors to LXRα (HTRF assay)
# experimentalContext: dose which leads to 50% saturation
pEC50: −log10 of the molar value.
measurementName: pEC50

### Prompt Let me know recorded pEC50 for CC(C)=CCC[C@@H](C)[C@H]1CC=C2C3=C(CC[C@@]21C)[C@@]1(C)CC[C@H](O)C(C)(C)[C@@H]1CC3 , thanks.
### Response ~7.17
